method_notes: Observed plasma concentrations of venetoclax concomitant with voriconazole
Format: in vivo
assay_setup: human, oral, 100 mg
readout_name: AUC
A bare number is not enough; add the unit after it.

Req: For the compound shown here, `CC1(C)CCC(CN2CCN(c3ccc(C(=O)NS(=O)(=O)c4ccc(NCC5CCOCC5)c([N+](=O)[O-])c4)c(Oc4cnc5[nH]ccc5c4)c3)CC2)=C(c2ccc(Cl)cc2)C1` , give the reported AUC.
Resp: 52400 ng·h/mL

Where do these numbers come from? They come from paper PMC12065538.
